Documented phosphorylation enrichment across a set of sequences
Experimental Target: FGFR1 (UniProt P11362)
Sequence (P11362 whole entry, looked up): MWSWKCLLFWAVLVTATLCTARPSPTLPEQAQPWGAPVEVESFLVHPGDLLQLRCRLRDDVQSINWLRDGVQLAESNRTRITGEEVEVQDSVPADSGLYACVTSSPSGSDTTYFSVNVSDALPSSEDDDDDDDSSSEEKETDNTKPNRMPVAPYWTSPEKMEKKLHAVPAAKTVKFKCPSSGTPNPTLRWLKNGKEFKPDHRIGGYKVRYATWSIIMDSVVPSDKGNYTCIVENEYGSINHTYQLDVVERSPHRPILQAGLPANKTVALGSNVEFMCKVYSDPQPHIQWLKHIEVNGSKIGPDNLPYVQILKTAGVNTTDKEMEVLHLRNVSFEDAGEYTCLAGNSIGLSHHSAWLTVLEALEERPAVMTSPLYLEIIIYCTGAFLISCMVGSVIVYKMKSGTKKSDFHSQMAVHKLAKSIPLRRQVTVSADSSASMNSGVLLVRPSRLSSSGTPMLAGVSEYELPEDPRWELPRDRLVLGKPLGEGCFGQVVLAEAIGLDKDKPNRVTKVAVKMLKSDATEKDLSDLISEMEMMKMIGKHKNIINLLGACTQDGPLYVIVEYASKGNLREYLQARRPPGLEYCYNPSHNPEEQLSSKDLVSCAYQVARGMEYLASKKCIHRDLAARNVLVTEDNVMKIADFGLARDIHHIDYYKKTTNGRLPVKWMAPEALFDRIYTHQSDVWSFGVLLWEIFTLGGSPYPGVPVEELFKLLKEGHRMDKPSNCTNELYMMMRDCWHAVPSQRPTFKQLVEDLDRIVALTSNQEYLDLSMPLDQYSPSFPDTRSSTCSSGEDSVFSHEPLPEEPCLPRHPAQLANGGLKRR
Test Method Notes: phosphorylation enrichment, bacterial display (enrichment ratio); higher = better substrate or ligand; peptides without Tyr show the background;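 note: 11-residue human phosphosite peptides and single-mutation variants displayed on the E. coli surface, counted by deep sequencing, each peptide's frequency after selection divided by its frequency in the unselected input library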;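 note: frequency after pTyr selection over input frequency; kinase dosed for 20-30% of maximal phosphorylation in three min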

Chain Sequence: ERRLIYTSDPK [VPS13D_Y864]
Experimental Target: FGFR1 (UniProt P11362)
phosphorylation enrichment: 0.486
//
Chain Sequence: NIKKEYTKMVQ [PMS2_Y181_A182T]
Experimental Target: FGFR1 (UniProt P11362)
phosphorylation enrichment: 0.808
//
Chain Sequence: IVRSPYEDLED [VHL_Y185_L184P]
Experimental Target: FGFR1 (UniProt P11362)
phosphorylation enrichment: 0.571
//
Chain Sequence: EKEKEYMLPLD [DNM2_Y563_K562E]
Experimental Target: FGFR1 (UniProt P11362)
phosphorylation enrichment: 0.443
//
Chain Sequence: RHPFFYAPELL [ALB_Y174_YF]
Experimental Target: FGFR1 (UniProt P11362)
phosphorylation enrichment: 1.25
//
Chain Sequence: TGHKGYVAFLE [CARD9_Y76]
Experimental Target: FGFR1 (UniProt P11362)
phosphorylation enrichment: 0.414
//
Chain Sequence: VLSIDYYFPPQ [AR_Y552_P549S]
Experimental Target: FGFR1 (UniProt P11362)
phosphorylation enrichment: 13.3
//
Chain Sequence: LLPNAYIFVVQ [L1CAM_Y418_A415P_YF]
Experimental Target: FGFR1 (UniProt P11362)
phosphorylation enrichment: 0.868
//
Chain Sequence: EVESPYEVHDY [GIGYF2_Y1168]
Experimental Target: FGFR1 (UniProt P11362)
phosphorylation enrichment: 0.489
//
Chain Sequence: SSNLYYRCLTA [CNGA3_Y169_W171C]
Experimental Target: FGFR1 (UniProt P11362)
phosphorylation enrichment: 0.949
//
Chain Sequence: PVPKTYDMLNA [PKP2_Y108_K112N]
Experimental Target: FGFR1 (UniProt P11362)
phosphorylation enrichment: 0.597
//
Chain Sequence: TSLAQYDSNSK [BMX_Y216]
Experimental Target: FGFR1 (UniProt P11362)
phosphorylation enrichment: 0.525
//
Chain Sequence: INNIDYFKKTT [FGFR2_Y656_YF]
Experimental Target: FGFR1 (UniProt P11362)
phosphorylation enrichment: 0.567
//
Chain Sequence: PVLSLYASGRT [ACTA1_Y145_A140P]
Experimental Target: FGFR1 (UniProt P11362)
phosphorylation enrichment: 0.328
//
Chain Sequence: NFFDLYGGEKF [PTPN11_Y66_D61N_YF]
Experimental Target: FGFR1 (UniProt P11362)
phosphorylation enrichment: 0.419
//
Chain Sequence: TLEKFYFAFPG [SLC1A1_Y51]
Experimental Target: FGFR1 (UniProt P11362)
phosphorylation enrichment: 8.55
//
Chain Sequence: VMAALYGRLFE [BTD_Y536_T532M_YF]
Experimental Target: FGFR1 (UniProt P11362)
phosphorylation enrichment: 0.457
//
Chain Sequence: TISPFYCQSLF [CRYAA_Y48_R49C_YF]
Experimental Target: FGFR1 (UniProt P11362)
phosphorylation enrichment: 0.535
//
Chain Sequence: PLCPDYQEPSR [DDR2_Y481_R478C]
Experimental Target: FGFR1 (UniProt P11362)
phosphorylation enrichment: 0.643
//
Chain Sequence: GEIQEYGAPSD [ABCC1_Y1508]
Experimental Target: FGFR1 (UniProt P11362)
phosphorylation enrichment: 0.523
//
Chain Sequence: PPDGEYFTLQI [TP53_Y327_L323P]
Experimental Target: FGFR1 (UniProt P11362)
phosphorylation enrichment: 12.4
//
Chain Sequence: TNDMRYPMKSE [TGDS_Y302]
Experimental Target: FGFR1 (UniProt P11362)
phosphorylation enrichment: 0.486
//
Chain Sequence: SGKSEYLLPVA [MYLK_Y611_R607G]
Experimental Target: FGFR1 (UniProt P11362)
phosphorylation enrichment: 0.456
//
Chain Sequence: FEPWVYSLSFE [PRKDC_Y647_F649L_YF]
Experimental Target: FGFR1 (UniProt P11362)
phosphorylation enrichment: 0.598
//
Chain Sequence: VVKTVYSLQPS [KNSTRN_Y87_P92S]
Experimental Target: FGFR1 (UniProt P11362)
phosphorylation enrichment: 0.52
//
Chain Sequence: YKGKNYKPLDL [RPL35_Y78_K77N]
Experimental Target: FGFR1 (UniProt P11362)
phosphorylation enrichment: 0.32
//
Chain Sequence: CPFNLYAEQLS [HGD_Y40_YF]
Experimental Target: FGFR1 (UniProt P11362)
phosphorylation enrichment: 0.577
//
Chain Sequence: GIVEDYRPTFF [ACVRL1_Y421_P424T_YF]
Experimental Target: FGFR1 (UniProt P11362)
phosphorylation enrichment: 0.592
//
Chain Sequence: AMCVCYDGVEV [ADAMTSL2_Y594_R593C]
Experimental Target: FGFR1 (UniProt P11362)
phosphorylation enrichment: 0.511
//
Chain Sequence: WAMPAYNRSKL [WWOX_Y293_L291P]
Experimental Target: FGFR1 (UniProt P11362)
phosphorylation enrichment: 0.296
//
Chain Sequence: RNIQQCNSFVS [PRKAR1A_Y373_Y373C]
Experimental Target: FGFR1 (UniProt P11362)
phosphorylation enrichment: 0.501
//
Chain Sequence: YDYKKYGKGLR [ZNF445_Y433]
Experimental Target: FGFR1 (UniProt P11362)
phosphorylation enrichment: 0.371
//
Chain Sequence: QLDQRYLLVPE [DDX49_Y223]
Experimental Target: FGFR1 (UniProt P11362)
phosphorylation enrichment: 0.843
//
Chain Sequence: KGEDFYFVTCH [FHL1_Y149_C150Y_YF]
Experimental Target: FGFR1 (UniProt P11362)
phosphorylation enrichment: 0.62
//
Chain Sequence: LSQAKYQIRFR [CRLF1_Y272_F268S_YF]
Experimental Target: FGFR1 (UniProt P11362)
phosphorylation enrichment: 0.558
//
Chain Sequence: GRQWNYVASMS [KLHL4_Y552]
Experimental Target: FGFR1 (UniProt P11362)
phosphorylation enrichment: 0.434
//
Chain Sequence: LSALDYKIFYY [WDPCP_Y210]
Experimental Target: FGFR1 (UniProt P11362)
phosphorylation enrichment: 0.816
//
Chain Sequence: VKYLGYPPPEI [KDR_Y357_A352V]
Experimental Target: FGFR1 (UniProt P11362)
phosphorylation enrichment: 0.666
//
Chain Sequence: RRESPYGGGGG [FUS_Y526_R524S]
Experimental Target: FGFR1 (UniProt P11362)
phosphorylation enrichment: 0.402
//
Chain Sequence: KKARAYGPGIE [FLNA_Y287]
Experimental Target: FGFR1 (UniProt P11362)
phosphorylation enrichment: 0.323
//
Chain Sequence: LSQDVYEEDSF [RET_Y900_R897Q_YF]
Experimental Target: FGFR1 (UniProt P11362)
phosphorylation enrichment: 0.991
//
Chain Sequence: LPVHFYSHVEH [PYGM_Y204_G205S]
Experimental Target: FGFR1 (UniProt P11362)
phosphorylation enrichment: 0.651
//
Chain Sequence: VVKLTYNENDN [CAMKK2_Y183_A182T]
Experimental Target: FGFR1 (UniProt P11362)
phosphorylation enrichment: 0.618
//
Chain Sequence: EARRVYGDIIF [ALDH5A1_Y175_H180Y_YF]
Experimental Target: FGFR1 (UniProt P11362)
phosphorylation enrichment: 0.505
//
Chain Sequence: RKRQFYLFKGK [RSPO4_Y112_C107R_YF]
Experimental Target: FGFR1 (UniProt P11362)
phosphorylation enrichment: 0.555
//
Chain Sequence: EQKKNYNAMKK [SCN5A_Y1495_Y1494N]
Experimental Target: FGFR1 (UniProt P11362)
phosphorylation enrichment: 0.643
//
Chain Sequence: STEPQYQPGEN [SRC_Y530]
Experimental Target: FGFR1 (UniProt P11362)
phosphorylation enrichment: 0.478
//
Chain Sequence: DHLASYLDKVR [KRT10_Y160_R156H]
Experimental Target: FGFR1 (UniProt P11362)
phosphorylation enrichment: 0.46

----------
Documented phosphorylation enrichment across a set of sequences
Experimental Target: EPHB2 (UniProt P29323)
Sequence (P29323 whole entry, looked up): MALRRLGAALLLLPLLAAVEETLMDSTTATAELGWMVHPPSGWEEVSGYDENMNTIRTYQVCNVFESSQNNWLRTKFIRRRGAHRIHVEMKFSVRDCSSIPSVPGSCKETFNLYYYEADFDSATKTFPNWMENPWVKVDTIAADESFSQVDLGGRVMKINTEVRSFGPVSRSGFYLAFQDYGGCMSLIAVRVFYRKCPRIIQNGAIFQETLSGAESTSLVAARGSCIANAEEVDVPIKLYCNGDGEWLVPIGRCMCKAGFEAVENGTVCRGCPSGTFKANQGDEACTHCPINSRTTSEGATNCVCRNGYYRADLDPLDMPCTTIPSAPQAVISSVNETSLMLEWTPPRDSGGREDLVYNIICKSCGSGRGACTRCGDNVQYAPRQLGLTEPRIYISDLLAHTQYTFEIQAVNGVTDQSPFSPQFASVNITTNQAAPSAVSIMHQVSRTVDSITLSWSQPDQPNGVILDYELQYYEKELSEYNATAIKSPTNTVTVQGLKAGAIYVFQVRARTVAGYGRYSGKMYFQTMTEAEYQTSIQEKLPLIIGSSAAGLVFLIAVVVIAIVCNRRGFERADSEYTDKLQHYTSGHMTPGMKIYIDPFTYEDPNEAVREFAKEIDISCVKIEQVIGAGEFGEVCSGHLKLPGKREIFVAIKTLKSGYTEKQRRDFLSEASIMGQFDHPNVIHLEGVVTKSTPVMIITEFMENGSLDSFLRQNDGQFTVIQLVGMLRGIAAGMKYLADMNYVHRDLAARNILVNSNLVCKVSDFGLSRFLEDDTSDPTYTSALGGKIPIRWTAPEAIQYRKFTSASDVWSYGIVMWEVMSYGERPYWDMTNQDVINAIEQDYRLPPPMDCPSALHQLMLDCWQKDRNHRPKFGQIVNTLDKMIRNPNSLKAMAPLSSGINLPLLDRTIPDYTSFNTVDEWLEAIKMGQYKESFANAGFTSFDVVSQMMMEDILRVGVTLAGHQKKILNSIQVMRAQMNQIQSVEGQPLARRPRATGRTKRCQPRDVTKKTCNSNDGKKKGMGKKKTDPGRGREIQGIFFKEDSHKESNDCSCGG
Test Method Notes: phosphorylation enrichment, bacterial display (enrichment ratio); higher = better substrate or ligand; peptides without Tyr show the background

Chain Sequence: RESVSYLFSHV [PRPS1_Y311_G306R]
phosphorylation enrichment: 0.901

Chain Sequence: NSFKYYMSDDI [ATRX_Y204_C200S]
phosphorylation enrichment: 0.542

Chain Sequence: NMSRIYSTTKV [ACE_Y151_A154T]
phosphorylation enrichment: 0.302

Chain Sequence: DDIPLYLKGGV [COX7A2_Y44_E40D]
phosphorylation enrichment: 0.701

Chain Sequence: VFAANYFKLLG [ROR2_Y645_D644N_YF]
phosphorylation enrichment: 0.648

Chain Sequence: IHTEFYDGLFP [BCR_Y561_K558T]
phosphorylation enrichment: 0.828

Chain Sequence: IEKLTYIDKWF [CPS1_Y872]
phosphorylation enrichment: 0.513

Chain Sequence: RRIHSYRCHLW [VHL_Y112_G114C]
phosphorylation enrichment: 0.477

Chain Sequence: FVFSFYHAFSG [ACTN4_Y265_S262F_YF]
phosphorylation enrichment: 0.812

Chain Sequence: GVTLLCFGRFN [ADGRD1_Y85_Y85C_YF]
phosphorylation enrichment: 0.669

Chain Sequence: SVMAEYGLYAA [VSX2_Y219_G223A]
phosphorylation enrichment: 8.04

Chain Sequence: TPGPNYCPGFN [USH2A_Y463_R464C_YF]
phosphorylation enrichment: 0.254

Chain Sequence: LQKNIYSEELR [LMNA_Y211_F206L]
phosphorylation enrichment: 1.02

Chain Sequence: EKRDAYVSCLN [GSR_Y150_R153C]
phosphorylation enrichment: 0.472

Chain Sequence: QRRLVYFERGA [RYR1_Y245_G248R_YF]
phosphorylation enrichment: 0.79

Chain Sequence: NSNAAYEQSHF [LRIF1_Y714]
phosphorylation enrichment: 0.479

Chain Sequence: GYKVRYATGSI [FGFR1_Y210_W213G]
phosphorylation enrichment: 0.479

Chain Sequence: AVDDKYSRREE [SART1_Y685_I681V]
phosphorylation enrichment: 0.516

Chain Sequence: DGTIVYTGLET [USH2A_Y4487]
phosphorylation enrichment: 0.528

Chain Sequence: TTKAKYKTPIF [PLD2_Y573_T577I_YF]
phosphorylation enrichment: 0.263

Chain Sequence: YECKWYIPLTD [BCR_Y756_D752E]
phosphorylation enrichment: 0.774

Chain Sequence: QAQMDYRRLQP [MPL_Y591]
phosphorylation enrichment: 0.439

Chain Sequence: TLEKFYFAFPG [SLC1A1_Y51]
phosphorylation enrichment: 2.85

Chain Sequence: KGEDFYFVTCH [FHL1_Y149_C150Y_YF]
phosphorylation enrichment: 0.788

Chain Sequence: FMCKVYSDRQP [FGFR1_Y280_P283R]
phosphorylation enrichment: 0.577

Chain Sequence: LSQDVYEEDSF [RET_Y900_R897Q_YF]
phosphorylation enrichment: 0.962

Chain Sequence: RNLDTYQKRLR [PLA2G2D_Y126]
phosphorylation enrichment: 0.279

Chain Sequence: SFPSFYTSHVQ [NEFL_Y443_YF]
phosphorylation enrichment: 0.584

Chain Sequence: QERPEYWDQET [HLA-A_Y83_G80R]
phosphorylation enrichment: 0.702

Chain Sequence: SIKDKYVTVLF [KCNH2_Y611_A614V_YF]
phosphorylation enrichment: 0.48

Chain Sequence: NRKGKYFNVER [ANAPC4_Y469]
phosphorylation enrichment: 0.448

Chain Sequence: RVGNMYMRGLS [ABCG8_Y209_V210M]
phosphorylation enrichment: 0.559

Chain Sequence: RSDSSYRMSAT [NHS_Y1532]
phosphorylation enrichment: 0.673

Chain Sequence: MHLRQYKLLGG [GNAS_Y391_E392K]
phosphorylation enrichment: 0.44

Chain Sequence: ARVDTYCRHNY [HLA-DRB1_Y107_A103R]
phosphorylation enrichment: 0.583

Chain Sequence: NIKKEYTKMVQ [PMS2_Y181_A182T]
phosphorylation enrichment: 0.333

Chain Sequence: AVLQLYIFVAT [CFTR_Y1014_P1013L]
phosphorylation enrichment: 0.599

Chain Sequence: TGHKGYVAFLE [CARD9_Y76]
phosphorylation enrichment: 0.466

Chain Sequence: QRIFQYIRSRF [DYRK1B_Y273_Q275R_YF]
phosphorylation enrichment: 0.795

Chain Sequence: MEFLPYGSLRD [JAK2_Y934_YF]
phosphorylation enrichment: 0.451

Chain Sequence: AHAGGYGAEAL [HBA1_Y25_E24G]
phosphorylation enrichment: 0.482

Chain Sequence: IVAREYFSKAD [CAMK2B_Y107_E110K_YF]
phosphorylation enrichment: 0.437

Chain Sequence: DAKTIYDFTDT [PDK1_Y136_A134T]
phosphorylation enrichment: 0.604
